- System: SR
- TEST DESCRIPTION: NCI tumour cell line growth inhibition, 48 h
Calls of active or inactive are those of the source. Cut-off read from the data, not from the text of the source: active = GI50 up to about 1.1 µM and inactive = higher.
Your answer must be one of the following: active, inactive

Consider the following illustrative entries.
COc1ccc(C2=C(OC(=O)N(C)C)c3cccn3-c3cc(C(F)(F)F)ccc3S2)cc1; inactive
Cc1cc2c(cc1C)C(=O)C1(C2)Cc2c(ccc(C)c2C)C1=O (configuration not stated); inactive
c1ccc2c(c1)nc1n2C2CCC(C2)N1 (configuration not stated); inactive
CCOC(=O)/C=C(/C(=O)OCC)n1cc(C)c(=O)[nH]c1=O; inactive
OC1[C@H]([C@H]2CCCC[C@@H]2O)CCC[C@@H]1[C@@H]1CCCC[C@H]1O (some centres not stated); inactive
NCCOc1cccc(C2(N3CCCCC3)CCCCC2)c1; inactive

Consider now this further compound.
Input line: Query: recorded result category for Cn1c(=O)c2c3ccccc3c(C(=O)c3ccccc3)n2c2ccccc21 in this test
Output line: inactive
